# Test system: LNCaP cells
# TEST_PROTOCOL: Proliferation inhibition of LNCaP cells (CCK-8)
# Format: cell-based
# RECORDED_CONDITIONS: Homo sapiens, 144 h, cultured 3 + 3 days, CCK-8, OD at 450 nm
# Protocol: The following in vitro assay was performed to determine the activity of the compounds of the present invention for inhibiting the proliferation of LNCaP cells. (1). Cell counting reagent CCK-8 (DOJINDO, CK04) […] After LNCaP cells were cultured for 3 days, the culture medium, test compounds, blank group, and control group were renewed with half of the liquid volume, and were cultured for another 3 days. […] The OD value per well was measured at 450 nm on a Victor3 microplate reader. […]
Mark met for IC50 under 100 nM, not met if at or over.

Sample answers from the record:
# MOLECULE, ASSIGNED_CLASS
records = [
    ("CN1CCC(Oc2ccc(N3C(=S)N(c4ccc(C#N)c(C(F)(F)F)c4)C(=O)C3(C)C)cc2F)C1 (stereo not drawn)", "met"),
    ("CC1(C)C(=O)N(c2ccc(C#N)c(C(F)(F)F)c2)C(=S)N1c1ccc(OC(F)F)nc1", "met"),
    ("CC1(C)C(=O)N(c2ccc(C#N)c(C(F)(F)F)c2)C(=S)N1c1ccc(O[C@@H]2CCOC2)nc1", "met"),
]

Qu. Consider the molecule CC1(C)C(=O)N(c2ccc(C#N)c(C(F)(F)F)c2)C(=S)N1c1ccc(OCC2(C#N)CC2)c(F)c1 . Is its IC50 strictly less than 100 nM?
Ans. not met

Qu. Is IC50 strictly under 100 nM for the entry CC1(C)C(=O)N(c2ccc(C#N)c(C(F)(F)F)c2)C(=S)N1c1ccc(OC[C@H](O)CO)cc1 ?
Ans. met

Qu. Determine whether this molecule shows IC50 lower than 100 nM (ties excluded): CC1(C)C(=O)N(c2ccc(C#N)c(C(F)(F)F)c2)C(=S)N1c1ccc(OC2COC2)cc1
Ans. not met
